target: RAC-alpha serine/threonine-protein kinase (Homo sapiens, UniProt P31749); experiment: Inhibition of AKT1 (unknown origin)
Sequence (P31749 whole entry): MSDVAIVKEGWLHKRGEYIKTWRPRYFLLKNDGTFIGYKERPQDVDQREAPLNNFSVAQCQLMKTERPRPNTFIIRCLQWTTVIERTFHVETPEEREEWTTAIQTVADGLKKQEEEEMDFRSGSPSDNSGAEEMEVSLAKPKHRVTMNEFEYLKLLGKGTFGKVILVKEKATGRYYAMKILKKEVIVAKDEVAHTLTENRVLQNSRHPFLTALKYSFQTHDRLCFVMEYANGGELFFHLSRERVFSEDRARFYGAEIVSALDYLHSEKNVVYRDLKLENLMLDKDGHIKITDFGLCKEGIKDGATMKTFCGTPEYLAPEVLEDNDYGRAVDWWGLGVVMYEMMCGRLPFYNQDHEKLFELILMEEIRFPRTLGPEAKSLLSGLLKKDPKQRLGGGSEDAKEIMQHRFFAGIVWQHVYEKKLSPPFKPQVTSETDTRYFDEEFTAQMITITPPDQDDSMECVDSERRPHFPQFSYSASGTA
pIC50: −log10 of the molar value.

| structure-string | pIC50 |
| --- | --- |
| O=C(NCCc1ccc(O)c(Br)c1)/C(Cc1cc(Br)c(O)c(-c2cc(C/C(=N/O)C(=O)NCCc3ccc(O)c(Br)c3)cc(Br)c2O)c1)=N\O | 5.72 |

====

biological target: Mitogen-activated protein kinase kinase kinase 8 (Homo sapiens, UniProt P41279); test: Inhibition of COT (unknown origin)
Sequence (P41279 whole entry): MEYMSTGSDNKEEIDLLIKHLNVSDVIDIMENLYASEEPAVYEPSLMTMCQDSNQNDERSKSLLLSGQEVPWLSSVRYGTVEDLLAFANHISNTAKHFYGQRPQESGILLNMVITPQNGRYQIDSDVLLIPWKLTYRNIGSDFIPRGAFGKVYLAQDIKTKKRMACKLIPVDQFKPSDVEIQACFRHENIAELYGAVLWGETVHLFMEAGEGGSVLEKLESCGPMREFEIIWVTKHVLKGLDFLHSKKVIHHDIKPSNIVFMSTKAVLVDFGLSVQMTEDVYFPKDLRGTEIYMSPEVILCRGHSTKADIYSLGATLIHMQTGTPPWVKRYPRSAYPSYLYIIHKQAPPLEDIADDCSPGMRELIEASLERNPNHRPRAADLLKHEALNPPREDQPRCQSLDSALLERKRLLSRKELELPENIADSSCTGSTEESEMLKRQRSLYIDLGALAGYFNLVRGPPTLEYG
pIC50: −log10 of the molar value.
# pIC50 annotations

| compound | assay-target | pIC50 |
| --- | --- | --- |
| O=C(NCCc1ccc(O)c(Br)c1)/C(Cc1cc(Br)c(O)c(-c2cc(C/C(=N/O)C(=O)NCCc3ccc(O)c(Br)c3)cc(Br)c2O)c1)=N\O [BASTADIN 3] | Mitogen-activated protein kinase kinase kinase 8 (Homo sapiens, UniProt P41279) | 5.80 |
| O=C1N/C=C/c2ccc(c(Br)c2)Oc2cc(cc(Br)c2O)CCNC(=O)/C(=N/O)Cc2ccc(c(Br)c2)Oc2cc(cc(Br)c2O)C/C1=N\O [BASTADIN 7] | Mitogen-activated protein kinase kinase kinase 8 (Homo sapiens, UniProt P41279) | 5.48 |
| O=C(NCCc1ccc(O)c(Br)c1)/C(Cc1cc(Br)c(O)c(Oc2ccc(CCNC(=O)/C(Cc3cc(Br)c(O)c(-c4cc(C/C(=N\O)C(=O)NCCc5ccc(O)c(Br)c5)cc(Br)c4O)c3)=N/O)cc2Br)c1)=N/O [SESQUIBASTADIN 1] | Mitogen-activated protein kinase kinase kinase 8 (Homo sapiens, UniProt P41279) | 5.89 |
| O=C1NCCc2cc(Br)c(O)c(c2)Oc2c(Br)cc(cc2Br)CCNC(=O)/C(=N/O)Cc2cc(Br)c(O)c(c2)Oc2c(Br)cc(cc2Br)C/C1=N\O [BASTADIN 6] | Mitogen-activated protein kinase kinase kinase 8 (Homo sapiens, UniProt P41279) | 5.32 |

====

pIC50 values recorded for Focal adhesion kinase 1 (Homo sapiens)
pIC50: −log10 of the molar value.
endpoint: pIC50

| structure-string | assay-target | endpoint-value |
| --- | --- | --- |
| O=C(NCCc1ccc(O)c(Br)c1)/C(Cc1cc(Br)c(O)c(-c2cc(C/C(=N/O)C(=O)NCCc3ccc(O)c(Br)c3)cc(Br)c2O)c1)=N\O | Focal adhesion kinase 1 (Homo sapiens) | 5.68 |
| O=C1N/C=C/c2ccc(c(Br)c2)Oc2cc(cc(Br)c2O)CCNC(=O)/C(=N/O)Cc2ccc(c(Br)c2)Oc2cc(cc(Br)c2O)C/C1=N\O | Focal adhesion kinase 1 (Homo sapiens) | 5.14 |

====

pIC50: −log10 of the molar value.
The following are reported pIC50 results, target or system Aurora kinase B (Homo sapiens).
endpoint: pIC50

| molecule | endpoint-value |
| --- | --- |
| O=C1N/C=C/c2ccc(c(Br)c2)Oc2cc(cc(Br)c2O)CCNC(=O)/C(=N/O)Cc2ccc(c(Br)c2)Oc2cc(cc(Br)c2O)C/C1=N\O [BASTADIN 7] | 5.59 |
| O=C(NCCc1ccc(O)c(Br)c1)/C(Cc1cc(Br)c(O)c(-c2cc(C/C(=N/O)C(=O)NCCc3ccc(O)c(Br)c3)cc(Br)c2O)c1)=N\O [BASTADIN 3] | 6.30 |
| O=C1NCCc2cc(Br)c(O)c(c2)Oc2c(Br)cc(cc2Br)CCNC(=O)/C(=N/O)Cc2cc(Br)c(O)c(c2)Oc2c(Br)cc(cc2Br)C/C1=N\O [BASTADIN 6] | 5.54 |
| O=C(NCCc1ccc(O)c(Br)c1)/C(Cc1cc(Br)c(O)c(Oc2ccc(CCNC(=O)/C(Cc3cc(Br)c(O)c(-c4cc(C/C(=N\O)C(=O)NCCc5ccc(O)c(Br)c5)cc(Br)c4O)c3)=N/O)cc2Br)c1)=N/O [SESQUIBASTADIN 1] | 5.64 |

Origin of the recorded values: ChEMBL document CHEMBL2331160
